system: Staphylococcus aureus; assay: Antibacterial activity against Staphylococcus aureus MTCC 96 assessed as inhibition zones at 300 ug/disc at 37 degC for 24 hr; type: functional; settings: MTCC 96, 24 h, read-out: IZ
endpoint_label: zone of inhibition at 300 µg/disc (mm)
Kindly answer with a numeric value in mm, unit omitted.

Take a look at these entries with their results.
compound | assay_target | endpoint_label | unit_tag | readout_number
COc1ccc(N2N=C3C(SC(c4cc(Cc5ccc(OC)c(C6SC7C(=NN(c8ccc(OC)cc8)C7c7ccc(F)cc7)N6c6ccc(C)cc6)c5)ccc4OC)N3c3ccc(C)cc3)C2c2ccc(F)cc2)cc1 (stereo not given) | Staphylococcus aureus | zone of inhibition at 300 µg/disc | mm | 26
COc1ccc(Cc2ccc(OC)c(C3SC4C(=NN(C(C)C)C4c4ccc(F)cc4)N3c3ccc(Cl)cc3)c2)cc1C1SC2C(=NN(C(C)C)C2c2ccc(F)cc2)N1c1ccc(Cl)cc1 (stereo not given) | Staphylococcus aureus | zone of inhibition at 300 µg/disc | mm | 13
COc1ccc(Cc2ccc(OC)c(C3SC4C(=NN(C(C)C)C4c4ccc(F)cc4)N3c3ccc([N+](=O)[O-])cc3)c2)cc1C1SC2C(=NN(C(C)C)C2c2ccc(F)cc2)N1c1ccc([N+](=O)[O-])cc1 (stereo not given) | Staphylococcus aureus | zone of inhibition at 300 µg/disc | mm | 23

Problem: Item COc1ccc(Cc2ccc(OC)c(C3SC4C(=NN(c5ccc(Cl)cc5)C4c4ccc(F)cc4)N3c3ccc(C)cc3)c2)cc1C1SC2C(=NN(c3ccc(Cl)cc3)C2c2ccc(F)cc2)N1c1ccc(C)cc1 (stereo not given) has what recorded zone of inhibition at 300 µg/disc?
Result: 29

Problem: Then this compound: COc1ccc(Cc2ccc(OC)c(C3SC4C(=NN(Cc5ccccc5)C4c4ccc(F)cc4)N3c3ccc([N+](=O)[O-])cc3)c2)cc1C1SC2C(=NN(Cc3ccccc3)C2c2ccc(F)cc2)N1c1ccc([N+](=O)[O-])cc1 (stereo not given)
Result: 19

* * *

tested on: Klebsiella aerogenes; assay: Antibacterial activity against Enterobacter aerogenes MTCC 39 assessed as inhibition zones at 300 ug/disk at 37 degC for 24 hr; assay type: functional; details: MTCC 39, 24 h, read-out: IZ
endpoint_label: zone of inhibition at 300 µg/disc (mm)
Kindly answer with a numeric value in mm, unit omitted.

Take a look at these entries with their results.
compound | unit_tag | readout_number
COc1ccc(N2N=C3C(SC(c4cc(Cc5ccc(OC)c(C6SC7C(=NN(c8ccc(OC)cc8)C7c7ccc(F)cc7)N6c6ccc([N+](=O)[O-])cc6)c5)ccc4OC)N3c3ccc([N+](=O)[O-])cc3)C2c2ccc(F)cc2)cc1 (centres undefined) | mm | 21
COc1ccc(Cc2ccc(OC)c(C3SC4C(=NN(c5ccccc5)C4c4ccc(F)cc4)N3c3ccc(C)cc3)c2)cc1C1SC2C(=NN(c3ccccc3)C2c2ccc(F)cc2)N1c1ccc(C)cc1 (centres undefined) | mm | 17
COc1ccc(Cc2ccc(OC)c(C3SC4C(=NN(C)C4c4ccc(F)cc4)N3c3ccc(C)cc3)c2)cc1C1SC2C(=NN(C)C2c2ccc(F)cc2)N1c1ccc(C)cc1 (centres undefined) | mm | 20

Problem: Item COc1ccc(Cc2ccc(OC)c(C3SC4C(=NN(c5ccc(Cl)cc5)C4c4ccc(F)cc4)N3c3ccc(Cl)cc3)c2)cc1C1SC2C(=NN(c3ccc(Cl)cc3)C2c2ccc(F)cc2)N1c1ccc(Cl)cc1 (centres undefined) has what recorded zone of inhibition at 300 µg/disc?
Result: 19
